test system: GMK cells; experiment: Cytotoxicity observed microscopically in GMK cells (Test Example 2); format: cell-based, green monkey; settings: 10 µg/ml, in parentheses
reported.property: cytotoxicity

Form: Entry = COc1ccc2[nH]c(C(=O)N3CCN(c4ccccc4C(F)(F)F)CC3)cc2c1 | System = GMK cells | cytotoxicity = ____
-

Form: Entry = CCn1cc(C(=O)O)c(=O)c2cc(F)c(N3CCN(c4ccccc4C(F)(F)F)CC3)cc21 | System = GMK cells | cytotoxicity = ____
+

Form: Entry = CC1(C)[C@@H](O)CC[C@]2(C)[C@H]3CC=C4[C@@H]5C[C@@](C)(C(=O)N6CCN(c7ccccc7C(F)(F)F)CC6)CC[C@]5(C)CC[C@@]4(C)[C@]3(C)CC[C@@H]12 | System = GMK cells | cytotoxicity = ____
-

Form: Entry = COc1cc2c(=O)n(N3CCN(c4ccccc4C(F)(F)F)CC3)ncc2c(OC)c1OC | System = GMK cells | cytotoxicity = ____
+

Form: Entry = CC[C@@]12C=C(C(=O)NCCN3CCN(c4ccccc4Cl)CC3)n3c4c(c5ccccc53)CCN(CCC1)[C@H]42 | System = GMK cells | cytotoxicity = ____
+

Form: Entry = CC[C@@]12C=C(C(=O)NCCN3CCN(c4ccccc4OC)CC3)n3c4c(c5ccccc53)CCN(CCC1)[C@H]42 | System = GMK cells | cytotoxicity = ____
-

Further cases:
Form: Entry = CCCCC/C=C\C/C=C\CCCCCCCC(=O)N1CCN(c2ccccc2C(F)(F)F)CC1 | System = GMK cells | cytotoxicity = ____
-

* * *

Provide the reported minimum cytotoxic concentration of each item.
system: MT-4 cells; experiment: Minimum cytotoxic concentration in MT-4 cells; format: cell-based, human; conditions: MT-4 cells; in parentheses

Field request: minimum cytotoxic concentration | item: CCCCCCCC(=O)N1CCN(c2ccccc2Cl)CC1
> 250 µg/mL

Field request: minimum cytotoxic concentration | item: COc1cc2c(=O)n(N3CCN(c4ccccc4C(F)(F)F)CC3)ncc2c(OC)c1OC
> 125 µg/mL

Field request: minimum cytotoxic concentration | item: CCCCCCCC(=O)N1CCN(c2ccccc2C(F)(F)F)CC1
125 µg/mL

Field request: minimum cytotoxic concentration | item: CCCCC/C=C\C/C=C\CCCCCCCC(=O)N1CCN(c2ccccc2Cl)CC1
> 125 µg/mL

FYI, the data here is from patent EP0548798A1.
